B1: JUNB (parent)
chain: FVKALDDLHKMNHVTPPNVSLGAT

- Variants of: B1
- Assay Text: protein stability index of a GFP-peptide fusion (GPS, HEK-293T) (PSI 1-6); higher = more stable;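 note: lentivirally expressed fusions sorted by FACS into six bins by GFP to DsRed ratio, PSI derived from sequencing read proportions per bin multiplied by bin number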
- Assay Setup: c terminus: a fixed tail appended
Measured Attribute: protein stability index

Worked set:
Mutation List | Measured Attribute | Reported Value
H13P | protein stability index | 1.75
H13Y | protein stability index | 1.6
N12A | protein stability index | 2.14
V2P | protein stability index | 3.05
A23S | protein stability index | 2.05
S20F | protein stability index | 1.39

Consider the following items and state reported protein stability index for each.
1. H13K
2. V19L
3. K3C

A.
[1.74, 1.69, 3.29]

Consider the following items and state reported protein stability index for each.
1. L5C
2. P17K
3. T15S
4. N18H
5. F1N

A.
[1.87, 2.64, 1.92, 1.62, 3.95]

Consider the following items and state reported protein stability index for each.
1. L8V
2. S20A
3. G22A
4. F1H

A.
1. 1.74
2. 3.1
3. 1.85
4. 4

Consider the following items and state reported protein stability index for each.
1. L8H
2. V2A
3. V14W
4. N12Q

A.
[2.26, 2.96, 2.7, 1.58]

Consider the following items and state reported protein stability index for each.
1. T24D
2. K3M
3. L21Q
4. G22N
5. L21T

A.
1: 1.86; 2: 1.74; 3: 2.36; 4: 2.28; 5: 1.78

Consider the following items and state reported protein stability index for each.
1. A4V
2. D6Y
3. V2T
4. P16V
5. A23C
6. N12M
7. D7S
8. A23K

A.
1. 1.77
2. 4.17
3. 3.33
4. 1.86
5. 2.16
6. 1.65
7. 1.47
8. 2.06

Consider the following items and state reported protein stability index for each.
1. L21I
2. F1G
3. L8F
4. D7G
5. P16D
6. K3D
7. P16L

A.
1. 1.9
2. 4.05
3. 2.59
4. 1.98
5. 1.76
6. 2.23
7. 1.53

Consider the following items and state reported protein stability index for each.
1. V14S
2. A23R
3. H13G
4. D6R

A.
1: 1.43; 2: 2.39; 3: 1.91; 4: 1.59
